target: Thyrotropin receptor (Homo sapiens); experiment: qHTS assay to identify small molecule agonists of the thyroid stimulating hormone receptor (TSHR) signaling pathway (AID 1224843); details: TSHR-HEK293 cells, cAMP HTRF, agonist mode, 30 min; series mostly up to 92.4 µM; further: nearly all actives have a fitted effect of over 45% in size
Results filed as inconclusive are left out. Calls of active or inactive are those of the source. The call rests on the fitted dose curve.
Reply using exactly one outcome from 1 = active, -1 = inactive

Example cases with answers are listed next.
- Compound: "O=[N+]([O-])c1cccc(Cl)c1Cl"
  Answer Label: -1
- Compound: "CCCCCCCCCCCCC(=O)O"
  Answer Label: -1
- Compound: "CCCc1ccccc1"
  Answer Label: -1

Which outcome was entered for the compound `O=C1CCCCCO1` in this test?
-1

Which outcome was entered for the compound `CC(C)(C)c1cc(CO)cc(C(C)(C)C)c1O` in this test?
-1

Which outcome was entered for the compound `CC[C@H](C)[C@H](N)C(=O)O` in this test?
-1

Which outcome was entered for the compound `O=C(O)COC(=O)Cc1ccccc1Nc1c(Cl)cccc1Cl` in this test?
-1

Which outcome was entered for the compound `SC1CCCC1` in this test?
-1

Which outcome was entered for the compound `O=C(NN1CCCC1)NS(=O)(=O)c1ccc(Cl)cc1` in this test?
-1

Which outcome was entered for the compound Oc1ccc(C(O)CNCCCCCCNCC(O)c2ccc(O)c(O)c2)cc1O (stereo not given) in this test?
1

Which outcome was entered for the compound `COc1ccccc1OC(=O)Oc1ccccc1OC` in this test?
-1

----------
molecular target: Cytochrome P450 2C9 (Homo sapiens) (UniProt P11712); experiment: Cytochrome P450 Family 2 Subfamily C Member 9 (CYP2C9) small molecule antagonists: luciferase reporter qHTS assay (AID 1671198); details: P450-Glo CYP2C9 enzyme assay, luciferin luminescence; series mostly up to 115 µM; further: nearly all actives have a fitted effect of over 50% in size; further: potency means the concentration at half of the fitted maximal effect
Sequence (P11712 whole entry, looked up): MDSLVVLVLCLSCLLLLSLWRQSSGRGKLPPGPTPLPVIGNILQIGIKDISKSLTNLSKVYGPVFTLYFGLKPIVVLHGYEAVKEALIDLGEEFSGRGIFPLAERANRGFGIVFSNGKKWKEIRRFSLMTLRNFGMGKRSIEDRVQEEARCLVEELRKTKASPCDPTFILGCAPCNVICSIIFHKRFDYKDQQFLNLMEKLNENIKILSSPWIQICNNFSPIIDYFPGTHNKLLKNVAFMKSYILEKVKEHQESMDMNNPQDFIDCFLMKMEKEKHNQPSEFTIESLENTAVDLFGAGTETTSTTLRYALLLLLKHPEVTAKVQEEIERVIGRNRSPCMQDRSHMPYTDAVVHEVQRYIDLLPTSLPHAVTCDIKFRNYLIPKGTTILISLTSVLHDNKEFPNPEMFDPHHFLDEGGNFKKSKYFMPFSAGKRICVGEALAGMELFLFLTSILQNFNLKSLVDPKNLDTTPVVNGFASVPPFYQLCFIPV
Results filed as inconclusive are left out. Activity calls are given as the source filed them. Calls come from the whole dose curve; as a rule, active = well fitted inhibition curve with a large enough effect in the repeat runs; inconclusive = weak or mixed curves; inactive = no such curve, though single readings can be large or run the other way.
Recorded Metric: Potency

- Compound: "Cc1ncsc1CCO"
  System Name: "Cytochrome P450 2C9 (Homo sapiens) (UniProt P11712)"
  Potency: "inactive"
- Compound: "Oc1ccc(Sc2ccc(O)cc2)cc1"
  System Name: "Cytochrome P450 2C9 (Homo sapiens) (UniProt P11712)"
  Potency: "inactive"
- Compound: "CCN(CC)CCOC(=O)C1(c2ccccc2)CCCC1"
  System Name: "Cytochrome P450 2C9 (Homo sapiens) (UniProt P11712)"
  Potency: "inactive"
- Compound: "C=CC[N+]1([C@H]2C[C@H]3[C@@H]4CC[C@H]5C[C@H](OC(C)=O)[C@@H](N6CCCCC6)C[C@]5(C)[C@H]4CC[C@]3(C)[C@H]2OC(=O)CC)CCCCC1"
  System Name: "Cytochrome P450 2C9 (Homo sapiens) (UniProt P11712)"
  Potency: "inactive"
- Compound: "COCCO"
  System Name: "Cytochrome P450 2C9 (Homo sapiens) (UniProt P11712)"
  Potency: "inactive"

Fill in Potency for each of the 5 compounds listed.
1. CC1CCc2cc(F)cc3c(=O)c(C(=O)O)cn1c23 (configuration not stated)
2. O=C(c1ccc(O)cc1)c1ccc(O)cc1
3. C=Cc1c(C)c2cc3[nH]c(cc4nc(cc5nc(cc1[nH]2)C(C)=C5CCC(=O)O)C(CCC(=O)O)=C4C)c(C)c3C=C
4. CCCCCCc1ccc(N)cc1
5. SC1CCCC1

inactive
inactive
inactive
17.8 µM (active)
inactive

----------
test: Caspase-3/7 induction in HepG2 cells by small molecules, qHTS cell viability counter screen (AID 1346981); settings: CellTiter-Fluor fluorescence, 17 h; series mostly up to 92.4 µM; further: on the % scale 0 is the no-effect control and ±100 the full control effect; nearly all actives have a fitted effect of over 30% in size
Inconclusive results are not listed. Active and inactive are the calls of the source. The call rests on the fitted dose curve; in most records, active means well fitted cell-killing curve with a large enough effect in the repeat runs; inconclusive means weak or mixed curves, or effect the other way; inactive means flat fitted curve, though single readings scatter.
Recorded Metric: activity change, negative = cytotoxicity

Look over these answered cases.
- Compound: "NC(=S)N/N=C/c1cccnc1"
  Recorded Metric: "activity change, negative = cytotoxicity"
  Measured: "inactive"
- Compound: "CCCOc1ccc2nc(NC(=O)OC)[nH]c2c1"
  Recorded Metric: "activity change, negative = cytotoxicity"
  Measured: "inactive"
- Compound: "FC(F)(F)C(F)(F)C(F)(F)C(F)(F)C(F)(F)C(F)(F)CCI"
  Recorded Metric: "activity change, negative = cytotoxicity"
  Measured: "inactive"
- Compound: "CCCCCCCCCCCCCCCBr"
  Recorded Metric: "activity change, negative = cytotoxicity"
  Measured: "inactive"
- Compound: "CC/C(=C\\C(=N/O)C(N)=O)C(C)[N+](=O)[O-] (centres undefined)"
  Recorded Metric: "activity change, negative = cytotoxicity"
  Measured: "inactive"
- Compound: "Cc1ccc(C)o1"
  Recorded Metric: "activity change, negative = cytotoxicity"
  Measured: "inactive"

Fill in activity change, negative = cytotoxicity for each of the 3 compounds listed.
1. COC(=O)CSc1cc(N=c2sc(=O)n3n2CCCC3)c(F)cc1Cl
2. COCCOCCOCCOCCOC
3. C#CCOC(=O)[C@@H](C)Oc1ccc(Oc2ncc(Cl)cc2F)cc1

inactive
inactive
inactive

Fill in activity change, negative = cytotoxicity for each of the 5 compounds listed.
1. CCCCCCCCCCCCCCC1CO1 (centres undefined)
2. CCOC(=O)C1=C(C)NC(C)=C(C(=O)OC)C1c1cccc([N+](=O)[O-])c1 (centres undefined)
3. CN(C)CCCOc1nn(Cc2ccccc2)c2ccccc12
4. Cc1c(Cn2ccnc2)c2ccccc2n1CCC(=O)O
5. C=C(C)C(=O)OCCN(C)C

1: inactive; 2: inactive; 3: inactive; 4: inactive; 5: inactive

----------
assay: qHTS assay for small molecule activators of the heat shock response signaling pathway (AID 743210); conditions: HeLa HSE-bla reporter, beta-lactamase ratio, 5 h; series mostly up to 62.6 µM;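 further: HeLa cells with beta-lactamase reporter driven by heat shock elements; on the % scale 0 is the no-effect control and ±100 the full control effect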
Inconclusive results are not listed. Active and inactive are the calls of the source. Calls come from the whole dose curve; as a rule, active = well fitted activation curve with a large enough effect in the signal ratio in the repeat runs, with a control signal flat (not every such curve was filed as active); inconclusive = weak or mixed curves; inactive = flat fitted curve, though single readings scatter; the % refers to the signal ratio.
Recorded Metric: activation

- Compound: "CCCCOCCOCCOCCOCCO"
  activation: "inactive"
- Compound: "O=C(/C=C/c1ccc(O)c(O)c1)O[C@@H]1C[C@](O)(C(=O)O)C[C@@H](O)[C@H]1O"
  activation: "inactive"
- Compound: "CN(C)CC[C@@H](c1ccc(Br)cc1)c1ccccn1"
  activation: "inactive"
- Compound: "CCOc1nc2cccc(C(=O)O)c2n1Cc1ccc(-c2ccccc2-c2nn[nH]n2)cc1"
  activation: "inactive"
- Compound: "CCOc1ccc(NC(=O)CC(C)=O)cc1"
  activation: "inactive"
- Compound: "CCCCc1cc2ccccc2c(OCCN(C)C)n1"
  activation: "inactive"
- Compound: "CC[C@@H]1C[C@H](N(Cc2cc(C(F)(F)F)cc(C(F)(F)F)c2)C(C)=O)c2cc(C(F)(F)F)ccc2N1C(=O)OC(C)C"
  activation: "inactive"
- Compound: "COc1ccc(C(C)=O)cc1"
  activation: "inactive"

Fill in activation for each of the 3 compounds listed.
1. CC(=O)N(O)CCCCCNC(=O)CCC(=O)N(O)CCCCCNC(=O)CCC(=O)N(O)CCCCCN
2. OCC1CC2CC1C1CCC(CO)C21 (stereo unspecified)
3. OC(CCN1CCCCC1)(c1ccccc1)C1CCCCC1 (stereo unspecified)

1: inactive; 2: inactive; 3: inactive

----------
experiment: A CellTox Green Cytotoxicity Assay to monitor cytotoxicity in HEK293 cells - 8 hour (AID 1224884); details: CellTox Green fluorescence; series mostly up to 76.8 µM; further: on the % scale 0 is the no-effect control and ±100 the full control effect; nearly all actives have a fitted effect of over 35% in size
Inconclusive results are not listed. Calls of active or inactive are those of the source. Calls follow the shape of the dose curve; as a rule, active = well fitted activation curve with a large enough effect in the repeat runs; inconclusive = weak or mixed curves; inactive = flat fitted curve, though single readings scatter.
Recorded Metric: cytotoxicity increase

Look over these answered cases.
- Compound: "COCCOCCOCCOCCOC"
  cytotoxicity increase: "inactive"
- Compound: "CC(=O)OCCc1ccccc1"
  cytotoxicity increase: "inactive"
- Compound: "Nc1nc(N)c2nc(CNc3ccc(C(=O)N[C@@H](CCC(=O)O)C(=O)O)cc3)cnc2n1"
  cytotoxicity increase: "inactive"
- Compound: "CN(c1nccc(=O)[nH]1)C1CCN(c2nc3ccccc3n2Cc2ccc(F)cc2)CC1"
  cytotoxicity increase: "inactive"
- Compound: "Cc1ccc(C(=O)C(C)CN2CCCCC2)cc1 (stereo unspecified)"
  cytotoxicity increase: "inactive"
- Compound: "COc1cc(C(C)(C)C)c(O)c(C(C)(C)C)c1"
  cytotoxicity increase: "inactive"
- Compound: "CCCCCC(CO)CCC (stereo unspecified)"
  cytotoxicity increase: "inactive"
- Compound: "C[C@@H](C1=C(CCN(C)C)Cc2ccccc21)c1ccccn1"
  cytotoxicity increase: "inactive"
- Compound: "CCCCOc1cc(C(=O)OCCN(CC)CC)ccc1N"
  cytotoxicity increase: "inactive"
- Compound: "Cc1ccccn1"
  cytotoxicity increase: "inactive"

Fill in cytotoxicity increase for each of the 4 compounds listed.
1. CC(C)(C)c1cc(CO)cc(C(C)(C)C)c1O
2. CCCCCCOC(=O)CCC
3. O=C(Cl)c1c(Cl)cccc1Cl
4. SC1CCCC1

1. inactive
2. inactive
3. inactive
4. inactive

----------
molecular target: Nuclear receptor subfamily 1 group I member 2 (Homo sapiens) (UniProt O75469); assay: Human pregnane X receptor (PXR) small molecule agonists, qHTS assay (AID 1346982); conditions: PXR-Luc HepG2, CYP3A4 luciferase reporter, 24 h; series mostly up to 92.4 µM; further: nearly all actives have a fitted effect of over 35% in size; on activation: on the % scale 0 is the no-effect control and ±100 the full control effect
Sequence (O75469 whole entry, looked up): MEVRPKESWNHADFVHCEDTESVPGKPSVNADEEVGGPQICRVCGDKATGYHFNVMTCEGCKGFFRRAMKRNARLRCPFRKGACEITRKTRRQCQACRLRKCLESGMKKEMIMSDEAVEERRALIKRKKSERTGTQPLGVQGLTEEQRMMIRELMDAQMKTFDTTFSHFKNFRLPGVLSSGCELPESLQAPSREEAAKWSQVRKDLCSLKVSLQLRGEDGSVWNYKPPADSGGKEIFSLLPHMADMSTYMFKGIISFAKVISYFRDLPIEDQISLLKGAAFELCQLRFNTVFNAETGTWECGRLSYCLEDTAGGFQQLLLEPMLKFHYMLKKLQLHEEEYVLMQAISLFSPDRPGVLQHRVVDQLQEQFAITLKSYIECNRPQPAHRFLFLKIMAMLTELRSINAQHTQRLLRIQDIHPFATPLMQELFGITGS
Results filed as inconclusive are left out. Activity calls are given as the source filed them. The call rests on the fitted dose curve; in most records, active means well fitted activation curve with a large enough effect in the repeat runs; inconclusive means weak or mixed curves; inactive means no such curve, though single readings can be large or run the other way.
Reply using exactly one outcome from active, inactive

- Molecule: "CC1=CC(=O)/C(=C(/C)O)C(=O)O1"
  System Name: "Nuclear receptor subfamily 1 group I member 2 (Homo sapiens) (UniProt O75469)"
  Answer Label: "inactive"
- Molecule: "CC(O)C1CCCCC1 (stereo not drawn)"
  System Name: "Nuclear receptor subfamily 1 group I member 2 (Homo sapiens) (UniProt O75469)"
  Answer Label: "inactive"
- Molecule: "O=C1c2cccc(O)c2C(=O)c2c(O)cc(CO)cc21"
  System Name: "Nuclear receptor subfamily 1 group I member 2 (Homo sapiens) (UniProt O75469)"
  Answer Label: "active"
- Molecule: "O=C(O)C1CCC(C(=O)O)CC1 (stereo not drawn)"
  System Name: "Nuclear receptor subfamily 1 group I member 2 (Homo sapiens) (UniProt O75469)"
  Answer Label: "inactive"
- Molecule: "COCCOCCOCCOCCOC"
  System Name: "Nuclear receptor subfamily 1 group I member 2 (Homo sapiens) (UniProt O75469)"
  Answer Label: "inactive"

Which outcome was entered for the molecule `CC(=O)OC/C=C/c1ccccc1` in this test?
inactive

Which outcome was entered for the molecule `Nc1nc(CC(=O)O)cs1` in this test?
inactive

Which outcome was entered for the molecule `C=CC(=O)OCCOC(=O)CCC(=O)O` in this test?
inactive
